Provide the reported log10(IC50) of each item.
experimental-target: HLA-A*02:06
assay-procedure: IEDB peptide-MHC binding, purified MHC/competitive/radioactivity; bounds were set here for any values at or beyond the usual limits of such assays
measurement-conditions: source organism: Vaccinia virus WR
Reminder: these figures are log10 of reported IC50, in nM before transformation.

Example entries and their recorded answers appear below.
Query: # value lookup — system HLA-A*02:06, readout log10(IC50), item "NIVTDLENRL"
Reply: 3.19

Query: # value lookup — system HLA-A*02:06, readout log10(IC50), item "DLTALLSCI"
Reply: 3.69

Query: # value lookup — system HLA-A*02:06, readout log10(IC50), item "SIGFEARIV"
Reply: 3.12

Query: # value lookup — system HLA-A*02:06, readout log10(IC50), item "FVKENERVNV"
Reply: 2.83

Query: # value lookup — system HLA-A*02:06, readout log10(IC50), item "ITLILSNKLL"
Reply: 3.59

Query: # value lookup — system HLA-A*02:06, readout log10(IC50), item "AVITETIPI"
Reply: 0.81

Hi team, please reply with log10(IC50) for each item in this list.
1. NIKISLNEI
2. DIKYISRDEL
3. TVDFTDCRT
4. NVISKIYTL
5. IVVALSSLV
6. KQIMECSRML
7. MICCDSRIVV

Reply:
3.18
3.31
2.53
0.23
0.91
1.78
1.72
